Recorded solubility, one value per entry.
Experiment: Solubility of the compound in amorphous form in phosphate buffer at pH 6.5
Format: physicochemical
Kindly answer with a numeric value in µg/mL, unit omitted.

Answered cases to consult:
[[record]]
molecule = "COc1ccc2c(c1)C1CC1(C(=O)N1CCN(C(C)=O)CC1)Cn1c-2c(C2CCCCC2)c2ccc(C(=O)NS(=O)(=O)N(C)C)cc21 (racemic)"
measurementname = "solubility"
experimentalresult = 18

[[record]]
molecule = "CCN1CC2CC(C1)N2C(=O)[C@]12C[C@H]1c1cc(OC)ccc1-c1c(C3CCCCC3)c3ccc(C(=O)NS(=O)(=O)N(C)C)cc3n1C2"
measurementname = "solubility"
experimentalresult = 450

[[record]]
molecule = "COc1ccc2c(c1)C1CC1(C(=O)N1C3CCC1CN(C)C3)Cn1c-2c(C2CCCCC2)c2ccc(C(=O)NS(=O)(=O)N(C)C)cc21 (racemic)"
measurementname = "solubility"
experimentalresult = 44

[[record]]
molecule = "COc1ccc2c(c1)C1CC1(C(=O)N1CC(C)(O)C1)Cn1c-2c(C2CCCCC2)c2ccc(C(=O)NS(=O)(=O)N(C)C)cc21 (racemic)"
measurementname = "solubility"
experimentalresult = 93


Next molecule, please.
Problem: Suppose we examine the molecule COc1ccc2c(c1)C1CC1(C(=O)N1CC3CCC(C1)N3C)Cn1c-2c(C2CCCCC2)c2ccc(C(=O)NS(=O)(=O)N(C)C)cc21 (racemic) ; what solubility value has been reported?
Result: 41

====

Molecular target: CYP2C9 (Homo sapiens, UniProt P11712)
Sequence (P11712 whole entry): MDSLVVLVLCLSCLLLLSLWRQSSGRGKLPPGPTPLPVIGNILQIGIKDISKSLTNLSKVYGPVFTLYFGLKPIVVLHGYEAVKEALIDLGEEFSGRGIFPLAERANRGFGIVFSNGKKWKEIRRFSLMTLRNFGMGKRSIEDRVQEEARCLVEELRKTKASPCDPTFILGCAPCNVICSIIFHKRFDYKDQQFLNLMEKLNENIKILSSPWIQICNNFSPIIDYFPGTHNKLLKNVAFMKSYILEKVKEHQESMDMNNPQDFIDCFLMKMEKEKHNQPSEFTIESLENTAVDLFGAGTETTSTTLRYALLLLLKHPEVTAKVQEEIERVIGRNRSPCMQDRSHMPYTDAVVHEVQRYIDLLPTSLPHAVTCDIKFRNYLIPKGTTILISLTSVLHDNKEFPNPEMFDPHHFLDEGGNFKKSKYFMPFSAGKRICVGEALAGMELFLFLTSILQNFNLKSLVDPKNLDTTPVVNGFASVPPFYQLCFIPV
Assay: Inhibition of CYP2C9 (unknown origin)
measurementName: IC50

Problem: Suppose we examine the compound COc1ccc2c(c1)[C@@H]1C[C@]1(C(=O)N1[C@@H]3CC[C@H]1CN(C)C3)Cn1c-2c(C2CCCCC2)c2ccc(C(=O)NS(=O)(=O)N(C)C)cc21 ; what IC50 value has been reported?
Result: > 40 µM

====

Test system: Rattus norvegicus
Experiment: AUC (0 to infinity) in rat at 5 mg/kg, iv
Assay type: ADME, organism-based, Plasma
Design: time infinity, dose 5 mg/kg, route intravenous
Conditions: in vivo
measurementName: AUC (µM·h)
Kindly answer with a numeric value in µM·h, unit omitted.

Problem: Suppose we examine the compound COc1ccc2c(c1)[C@@H]1C[C@]1(C(=O)N1[C@@H]3CC[C@H]1CN(C)C3)Cn1c-2c(C2CCCCC2)c2ccc(C(=O)NS(=O)(=O)N(C)C)cc21 [BECLABUVIR] ; what AUC value has been reported?
Result: 30

====

Assay: Cytotoxicity against human HuH7 cells by Alamar blue assay
Type: cell-based
Details: Huh-7 cells
measurementName: CC50

Answered cases to consult:
[[record]]
compound = "COc1ccc2c(c1)C1CC1(C(=O)N1CC(O)C1)Cn1c-2c(C2CCCCC2)c2ccc(C(=O)NS(=O)(=O)N(C)C)cc21 (racemic)"
experimentalresult = "> 10 µM"

[[record]]
compound = "COc1ccc2c(c1)C1CC1(C(=O)N1CCN(C(C)=O)CC1)Cn1c-2c(C2CCCCC2)c2ccc(C(=O)NS(=O)(=O)N(C)C)cc21 (racemic)"
experimentalresult = "> 10 µM"

[[record]]
compound = "COc1ccc2c(c1)C1CC1(C(=O)N1CC3CCC(C1)N3)Cn1c-2c(C2CCCCC2)c2ccc(C(=O)NS(=O)(=O)N(C)C)cc21 (racemic)"
experimentalresult = "> 10 µM"

[[record]]
compound = "COc1ccc2c(c1)C1CC1(C(=O)N1C3CCC1CNC3)Cn1c-2c(C2CCCCC2)c2ccc(C(=O)NS(=O)(=O)N(C)C)cc21 (racemic)"
experimentalresult = "> 10 µM"

[[record]]
compound = "CN(C)S(=O)(=O)NC(=O)c1ccc2c(C3CCCCC3)c3n(c2c1)C[C@@]1(C(=O)N2CCOCC2)C[C@H]1c1ccccc1-3"
experimentalresult = "> 10 µM"


Next compound, please.
Problem: Suppose we examine the compound COc1ccc2c(c1)C1CC1(C(=O)N1CC(O)(c3ccccc3)C1)Cn1c-2c(C2CCCCC2)c2ccc(C(=O)NS(=O)(=O)N(C)C)cc21 (racemic) ; what CC50 value has been reported?
Result: 8 µM
